- TARGET: T1, SARS-CoV-2 S1 (aa16-685) (Wuhan) (SARS-CoV-2 Wuhan, UniProt P0DTC2 16-685)
- T1 construct: NRC; FLAG, 6xHis tags
- ASSAY: SPR, antigen on chip
EXPERIMENTAL ENDPOINT: koff (s⁻¹)
Dear colleague, please return just the value in s⁻¹, with no unit written.

- BINDER: "NRCoV2-MRed03 VHH (VHH) VHH: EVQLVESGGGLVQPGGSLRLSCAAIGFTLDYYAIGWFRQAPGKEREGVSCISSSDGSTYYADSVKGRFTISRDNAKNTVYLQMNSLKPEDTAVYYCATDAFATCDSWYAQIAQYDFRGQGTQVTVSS"
  EXPERIMENTAL ENDPOINT: "koff"
  VALUE MEASURED: "6.15e-05"
- BINDER: "NRCoV2-MRed06 VHH (VHH) VHH: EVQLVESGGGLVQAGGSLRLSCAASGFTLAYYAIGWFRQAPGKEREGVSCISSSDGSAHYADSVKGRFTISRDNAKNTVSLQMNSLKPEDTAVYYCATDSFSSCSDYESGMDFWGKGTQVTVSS"
  EXPERIMENTAL ENDPOINT: "koff"
  VALUE MEASURED: 0.00157
- BINDER: "NRCoV2-MRed07 VHH (VHH) VHH: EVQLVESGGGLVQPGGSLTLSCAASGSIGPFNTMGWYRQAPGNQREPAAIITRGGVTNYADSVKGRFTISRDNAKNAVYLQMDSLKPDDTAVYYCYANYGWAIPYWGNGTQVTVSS"
  EXPERIMENTAL ENDPOINT: "koff"
  VALUE MEASURED: 0.000427

Q: Data request, read-out koff, for NRCoV2-MRed04 VHH (VHH) VHH: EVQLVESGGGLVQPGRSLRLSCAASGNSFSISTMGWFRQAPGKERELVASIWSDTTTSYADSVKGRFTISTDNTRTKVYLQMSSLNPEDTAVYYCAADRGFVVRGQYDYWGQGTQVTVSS
Ans: 0.00183
